study.target: human TLR9 (Homo sapiens)
Sequence (Q9NR96 26-1032): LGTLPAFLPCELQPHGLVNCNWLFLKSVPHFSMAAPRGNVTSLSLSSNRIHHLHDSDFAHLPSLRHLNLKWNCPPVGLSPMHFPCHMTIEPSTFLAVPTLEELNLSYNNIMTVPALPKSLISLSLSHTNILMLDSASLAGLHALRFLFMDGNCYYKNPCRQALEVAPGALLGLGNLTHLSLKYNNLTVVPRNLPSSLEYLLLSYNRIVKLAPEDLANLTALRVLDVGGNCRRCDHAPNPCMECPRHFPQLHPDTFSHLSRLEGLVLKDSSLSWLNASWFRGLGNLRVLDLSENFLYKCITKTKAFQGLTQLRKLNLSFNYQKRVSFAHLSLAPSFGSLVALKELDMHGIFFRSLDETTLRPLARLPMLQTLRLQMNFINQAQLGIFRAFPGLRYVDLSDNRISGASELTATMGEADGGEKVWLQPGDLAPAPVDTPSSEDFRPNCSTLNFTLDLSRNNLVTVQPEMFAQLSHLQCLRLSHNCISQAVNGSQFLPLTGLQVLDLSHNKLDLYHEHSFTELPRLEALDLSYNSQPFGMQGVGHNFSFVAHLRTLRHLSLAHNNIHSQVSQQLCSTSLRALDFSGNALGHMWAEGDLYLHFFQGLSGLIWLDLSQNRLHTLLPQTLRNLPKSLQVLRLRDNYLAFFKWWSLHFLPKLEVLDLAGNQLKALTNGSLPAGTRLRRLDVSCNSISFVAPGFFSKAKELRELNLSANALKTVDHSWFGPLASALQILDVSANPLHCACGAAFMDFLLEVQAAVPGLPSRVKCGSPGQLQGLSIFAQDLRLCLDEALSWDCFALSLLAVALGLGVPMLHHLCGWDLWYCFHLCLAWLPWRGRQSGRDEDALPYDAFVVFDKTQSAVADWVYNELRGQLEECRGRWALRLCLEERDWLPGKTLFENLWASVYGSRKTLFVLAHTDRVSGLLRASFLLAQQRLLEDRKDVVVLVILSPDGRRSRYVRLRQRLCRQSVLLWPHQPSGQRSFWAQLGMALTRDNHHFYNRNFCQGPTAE
measurement.notes: TLR9 inhibition reporter assay (HEK-Blue cells, SEAP reporter, ODN2006 stimulation)
setup.conditions: HEK-Blue cells overexpressing human TLR9, SEAP reporter, ODN2006 5 nM
pIC50: −log10 of the molar value.
Property: pIC50; scope: individual molecules
property.measured: pIC50

[[record]]
molecule = "CNCCN1CCC(c2ccc3[nH]c(-c4ccc5[nH]ccc5c4)c(C)c3c2)CC1"
study_target = "human TLR9 (Homo sapiens)"
observed = "6.00 to 7.00"

[[record]]
molecule = "CC(C)c1c(-c2ccc3nc(N)cn3c2)[nH]c2ccc(C3CCNCC3)cc12"
study_target = "human TLR9 (Homo sapiens)"
observed = "4.30 to 6.00"

[[record]]
molecule = "Cc1cc(-c2[nH]c3ccc(C4CCN(C(=O)CCN5[C@@H]6CC[C@H]5COC6)CC4)cc3c2C(C)C)cn2nnnc12"
study_target = "human TLR9 (Homo sapiens)"
observed = "4.30 to 6.00"

[[record]]
molecule = "Cc1nc2cc(-c3[nH]c4ccc(C5CCN(C(=O)CN(C)C)CC5)cc4c3C(C)C)ccn2n1"
study_target = "human TLR9 (Homo sapiens)"
observed = "4.30 to 6.00"

[[record]]
molecule = "Cc1cn2cc(-c3[nH]c4ccc(C5CCN(Cc6c[nH]cn6)CC5)cc4c3C(C)C)ccc2n1"
study_target = "human TLR9 (Homo sapiens)"
observed = "> 7.00"

[[record]]
molecule = "CCc1c(-c2ccnc3[nH]nc(CC)c23)[nH]c2ccc(C3CCNCC3)cc12"
study_target = "human TLR9 (Homo sapiens)"
observed = "6.00 to 7.00"

[[record]]
molecule = "Cc1cc(-c2[nH]c3ccc(C4CCNCC4)cc3c2C(C)C)cc2nccnc12"
study_target = "human TLR9 (Homo sapiens)"
observed = "4.30 to 6.00"

[[record]]
molecule = "Cc1cc2cc(-c3[nH]c4ccc(C5CCN(C(=O)CN(C)C)CC5)cc4c3C(C)C)cc(C)n2n1"
study_target = "human TLR9 (Homo sapiens)"
observed = "6.00 to 7.00"

[[record]]
molecule = "CC(C)c1c(-c2ccnc3[nH]ncc23)[nH]c2ccc(C3CCN(Cc4cnc5ccccc5c4)CC3)cc12"
study_target = "human TLR9 (Homo sapiens)"
observed = "4.30 to 6.00"

[[record]]
molecule = "CC(C)c1c(-c2ccnc3[nH]ccc23)[nH]c2ccc(C3CCNCC3)cc12"
study_target = "human TLR9 (Homo sapiens)"
observed = "4.30 to 6.00"

[[record]]
molecule = "Cc1cc(-c2[nH]c3ccc(C4CCN(C(=O)CCN5CCCCC5)CC4)cc3c2C(C)C)cn2nnnc12"
study_target = "human TLR9 (Homo sapiens)"
observed = "4.30 to 6.00"

[[record]]
molecule = "CC(C)c1c(-c2ccc3nccn3c2)[nH]c2ccc(C3CCN(C(=O)[C@@H]4CCCNC4)CC3)cc12"
study_target = "human TLR9 (Homo sapiens)"
observed = "6.00 to 7.00"

[[record]]
molecule = "Cc1cc(-c2[nH]c3ccc(C4CCNCC4)cc3c2C(C)C)cc2[nH]c(=O)oc12"
study_target = "human TLR9 (Homo sapiens)"
observed = "6.00 to 7.00"

[[record]]
molecule = "CNCCN1CCC(c2ccc3[nH]c(-c4ccnc5[nH]ncc45)c(C(C)C)c3c2)C(F)(F)C1 (stereo not drawn)"
study_target = "human TLR9 (Homo sapiens)"
observed = "6.00 to 7.00"

[[record]]
molecule = "Cc1cc(-c2[nH]c3ccc(C4CCN(CC(=O)N(C)C)CC4)cc3c2C(C)C)cn2ccnc12"
study_target = "human TLR9 (Homo sapiens)"
observed = "6.00 to 7.00"

